Where do these numbers come from? They come from paper PMC8605023.

The following binders are listed with their measured Kd values.
molecular target: NTF2 domain of G3BP1 (human, UniProt Q13283 11-133); assay: FP
Sequence (Q13283 11-133): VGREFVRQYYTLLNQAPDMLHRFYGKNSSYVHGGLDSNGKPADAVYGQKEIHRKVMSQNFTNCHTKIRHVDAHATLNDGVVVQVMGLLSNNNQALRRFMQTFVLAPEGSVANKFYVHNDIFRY
Please respond with the number in µM and leave the unit unwritten.

Binder	Unit tag	Kd
APRAVSFADNNDITNT [MERS-CoV N peptide corresponding to the ΦxFG peptide, synthetic]	µM	51

Now, please, on to the next binder.
Supply Kd value. Item: APRITFGGPTDSTDNN [SARS-CoV N peptide with the ΦxFG motif, synthetic]
2.8
